- assay: Lipophilicity, log D of the compound at pH 7.4
- Type: physicochemical
- assaySetup: buffer
reportedMetric: logD
No unit in the answer, only the number.

**Query** Looking for the measured logD of "COC(=O)c1ccc2nc(NC(C)=O)sc2c1" , can you help?
**Result** 1.5

* * *

- assay: Half life in rat at 5 mg/kg, iv
- Type: ADME, organism-based
- Set-up: dose 5 mg/kg, route intravenous
- assaySetup: in vivo
reportedMetric: half-life (h)
Give the quantity in h, number only.

**Query** Looking for the measured half-life of "CC(=O)Nc1cn2cc(-c3cnc(N)c(C(F)(F)F)c3)ccc2n1" , can you help?
**Result** 3

**Query** # repeat for "CC(=O)Nc1nc2ccc(-c3ccc(N)nc3)cc2s1"
**Result** 2.5

* * *

- assay: Volume of distribution at steady state in rat at 5 mg/kg, iv
- Format: ADME, organism-based
- Design: dose 5 mg/kg, route intravenous
- assaySetup: in vivo, read-out: Vdss
reportedMetric: Vd (L/kg)
Give the quantity in L/kg, number only.

**Query** Looking for the measured Vd of "CC(=O)Nc1cn2cc(-c3cnc(N)c(C(F)(F)F)c3)ccc2n1" , can you help?
**Result** 0.68

**Query** # repeat for "CC(=O)Nc1nc2ccc(-c3ccc(N)nc3)cc2s1"
**Result** 3.6

* * *

Would you mind telling me the reported Papp A→B of each entry?
- assay: Apparent permeability from apical to basolateral side in human Caco2 cells
- Type: ADME, cell-based
- assaySetup: Caco-2
Give the quantity in ×10⁻⁶ cm/s, number only.

**Query** Looking for the measured Papp A→B of "CC(=O)Nc1nc2ccc(-c3cnc(N)c(C(F)(F)F)c3)cc2s1" , can you help?
**Result** 16

**Query** # repeat for "COc1cc(-c2ccc3nc(NC(C)=O)sc3c2)cnc1N"
**Result** 6.7

**Query** # repeat for "CC(=O)Nc1cn2cc(-c3cnc(N)c(C(F)(F)F)c3)ccc2n1"
**Result** 40

**Query** # repeat for "CC(=O)Nc1nc2ccc(-c3ccc(N)nc3)cc2s1"
**Result** 46

* * *

- assay: Solubility of the compound in PBS buffer at pH 7.4
- Assay type: physicochemical
Threshold rule: solubility greater than or equal to 2 µM is yes (1); below that, no (0).

**Query** Test whether the compound "CC(=O)Nc1cn2cc(-c3cnc(N)c(C(F)(F)F)c3)cnc2n1" records solubility of 2 µM or higher.
**Result** yes (1)

**Query** # repeat for "CC(=O)Nc1nc2ccc(-c3cnc(N)c(C(F)(F)F)c3)cc2n1C"
**Result** yes (1)

**Query** # repeat for "CC(=O)Nc1nc2ccc(-c3cnc(N)c(C(F)(F)F)c3)cc2o1"
**Result** no (0)

**Query** # repeat for "CC(=O)Nc1nc2ccc(-c3cnc(N)c(C(F)(F)F)c3)cc2s1"
**Result** no (0)

**Query** # repeat for "CC(=O)Nc1cn2cc(-c3cnc(N)c(C(F)(F)F)c3)ncc2n1"
**Result** no (0)

**Query** # repeat for "CC(=O)Nc1ncc2cc(-c3cnc(N)c(C(F)(F)F)c3)ccc2n1"
**Result** no (0)

**Query** # repeat for "CC(=O)Nc1nc2ccc(-c3ccc(N)nc3)cc2s1"
**Result** yes (1)

**Query** # repeat for "Nc1ccc(-c2ccc3nc(NC(=O)CN4CCCCC4)sc3c2)cn1"
**Result** yes (1)

**Query** # repeat for "Nc1ccc(-c2ccc3nc(NC(=O)CCCN4CCCCC4)sc3c2)cn1"
**Result** yes (1)

**Query** # repeat for "Nc1ncc(-c2ccc3nc(NC(=O)CCCN4CCCCC4)sc3c2)cc1C(F)(F)F"
**Result** yes (1)

**Query** # repeat for "Nc1ncc(-c2ccc3nc(NC(=O)CCCN4CCOCC4)sc3c2)cc1C(F)(F)F"
**Result** yes (1)
